target: UniProt:P51532; assay: ATPase catalytic activity assay (ADP-Glo), BRG-1
pIC50: −log10 of the molar value.
pIC50: recorded values

Here are 2 compounds together with their reported answers.
C[C@@]1(O)COCc2ccc(C(=O)NCc3cc4nc(-c5ccccc5)ccc4cn3)cc21 [Compound 89] | < 6.00
C[C@@]1(C#N)COCc2ccc(C(=O)NCc3cc4nc(-c5cnn6ccccc56)ccc4cn3)cc21 [Compound 493] | 6.00 to 6.30

### Prompt What measured pIC50 goes with C[C@@]1(C#N)COCc2ccc(C(=O)NCc3cc4nc(-n5cccc(C6CC6)c5=O)ccc4cn3)cc21 [Compound 282] ?
### Response < 6.00

### Prompt What measured pIC50 goes with COc1cc(C)nn1-c1ccc2cnc(CNC(=O)c3ccc4c(c3)[C@](C)(C#N)COC4)cc2n1 [Compound 195] ?
### Response < 6.00

### Prompt What measured pIC50 goes with C[C@@]1(C#N)COCc2ccc(C(=O)NCc3cc4cc(-c5nccc(N6CCC6)n5)cnc4cn3)cc21 [Compound 372] ?
### Response < 6.00

### Prompt What measured pIC50 goes with COC(C)(C)C#Cc1cccc(-c2ccc3cnc(CNC(=O)c4ccc5c(c4)[C@](C)(C#N)COC5)cc3n2)n1 [Compound 163] ?
### Response 6.30 to 7.00

### Prompt What measured pIC50 goes with C[C@@]1(C#N)COCc2ccc(C(=O)NCc3ncc4ccc(-c5ccccc5)cc4n3)cc21 [Compound 522] ?
### Response 6.00 to 6.30

====

target: UniProtKB P51532; assay: ATPase catalytic activity assay (ADP-Glo), BRG-1
pIC50: −log10 of the molar value.
pIC50: recorded values

CN(C)c1cccc(-c2ccc3cnc(CNC(=O)c4cc(F)c5c(c4)[C@](F)(C(F)F)COC5)cc3n2)n1 [Compound 226] | 6.30 to 7.00
COCCNC(=O)c1cccc(C#Cc2ccnc(CNC(=O)c3ccc4c(c3)[C@](C)(C#N)COC4)c2)c1 [Compound 83] | > 7.00
O=C(NCc1cc(C#Cc2ccccc2)ccn1)c1cccc(C2(C(F)F)COC2)c1 [Compound 13] | < 6.00
Cc1nn(C)cc1-c1ccc2cnc(CNC(=O)c3ccc4c(c3)[C@](C)(C#N)COC4)cc2n1 [Compound 509] | 6.00 to 6.30
O=C(NCc1cc2nc(-c3cncc(N4CCC4)n3)ccc2cn1)c1cc(F)c2c(c1)[C@](F)(C(F)F)COC2 [Compound 375] | > 7.00
CN(C)C(=O)c1cccc(C#Cc2ccnc(CNC(=O)c3ccc4c(c3)[C@](C)(C#N)COC4)c2)c1 [Compound 84] | 6.00 to 6.30

### Prompt What measured pIC50 goes with C[C@@]1(C#N)COCc2ccc(C(=O)NCc3cc4cc(-c5ccnc(N6CCC6)c5F)ccc4cn3)cc21 [Compound 272] ?
### Response 6.30 to 7.00

====

pIC50: recorded values
target: BRG-1 (Homo sapiens, UniProt P51532); assay: ATPase catalytic activity assay (ADP-Glo), BRG-1
Sequence (P51532 whole entry): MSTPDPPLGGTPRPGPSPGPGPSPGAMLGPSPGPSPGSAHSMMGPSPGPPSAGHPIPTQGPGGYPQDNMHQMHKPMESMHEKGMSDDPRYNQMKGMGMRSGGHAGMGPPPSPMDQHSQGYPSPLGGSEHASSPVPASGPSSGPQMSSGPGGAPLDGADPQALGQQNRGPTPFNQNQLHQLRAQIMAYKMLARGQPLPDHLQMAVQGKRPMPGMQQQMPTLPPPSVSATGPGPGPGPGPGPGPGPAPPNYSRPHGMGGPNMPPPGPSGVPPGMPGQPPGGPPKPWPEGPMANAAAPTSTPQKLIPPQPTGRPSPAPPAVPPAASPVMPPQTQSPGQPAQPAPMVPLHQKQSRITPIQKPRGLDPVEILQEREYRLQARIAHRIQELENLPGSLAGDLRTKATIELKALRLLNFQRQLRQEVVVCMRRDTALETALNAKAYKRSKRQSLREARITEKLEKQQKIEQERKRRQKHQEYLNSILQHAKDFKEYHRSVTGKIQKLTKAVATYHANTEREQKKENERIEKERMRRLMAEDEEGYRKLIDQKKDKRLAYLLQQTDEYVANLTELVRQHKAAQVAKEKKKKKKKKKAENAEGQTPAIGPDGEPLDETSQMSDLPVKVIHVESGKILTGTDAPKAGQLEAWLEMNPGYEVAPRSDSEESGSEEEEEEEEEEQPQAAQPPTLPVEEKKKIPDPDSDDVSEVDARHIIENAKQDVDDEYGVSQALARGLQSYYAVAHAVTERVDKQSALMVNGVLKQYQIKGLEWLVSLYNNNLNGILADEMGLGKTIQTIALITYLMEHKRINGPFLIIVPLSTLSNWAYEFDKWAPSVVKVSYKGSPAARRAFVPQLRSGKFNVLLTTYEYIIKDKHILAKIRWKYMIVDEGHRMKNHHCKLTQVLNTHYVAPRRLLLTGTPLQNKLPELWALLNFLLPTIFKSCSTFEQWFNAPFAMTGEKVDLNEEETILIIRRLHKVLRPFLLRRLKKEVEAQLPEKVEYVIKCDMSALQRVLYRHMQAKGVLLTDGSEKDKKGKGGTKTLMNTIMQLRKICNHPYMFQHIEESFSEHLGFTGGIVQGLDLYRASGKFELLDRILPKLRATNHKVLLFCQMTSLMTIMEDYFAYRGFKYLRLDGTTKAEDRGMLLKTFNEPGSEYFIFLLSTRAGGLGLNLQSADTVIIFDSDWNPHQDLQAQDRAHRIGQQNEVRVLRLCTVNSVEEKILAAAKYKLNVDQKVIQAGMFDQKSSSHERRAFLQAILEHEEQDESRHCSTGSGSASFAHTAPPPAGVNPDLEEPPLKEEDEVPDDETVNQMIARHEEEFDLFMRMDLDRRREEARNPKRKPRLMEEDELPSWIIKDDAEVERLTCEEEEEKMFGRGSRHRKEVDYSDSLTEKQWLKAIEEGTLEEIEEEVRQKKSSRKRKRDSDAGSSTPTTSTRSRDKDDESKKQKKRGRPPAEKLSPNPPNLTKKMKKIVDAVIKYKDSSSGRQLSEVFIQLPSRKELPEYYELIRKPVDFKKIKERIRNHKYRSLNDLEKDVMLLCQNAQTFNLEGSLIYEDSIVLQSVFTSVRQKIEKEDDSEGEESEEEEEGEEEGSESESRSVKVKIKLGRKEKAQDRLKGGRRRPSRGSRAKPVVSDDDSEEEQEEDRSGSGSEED
pIC50: −log10 of the molar value.

Cn1cc(-c2ccc3cnc(CNC(=O)c4ccc5c(c4)[C@](C)(C#N)COC5)cc3n2)cn1 [Compound 104] | < 6.00
CN(C)c1cccc(-c2ccc3cnc(CNC(=O)c4cnc5c(c4)[C@](F)(C(F)F)COC5)cc3n2)n1 [Compound 224] | > 7.00
C[C@@]1(C#N)COCc2ncc(C(=O)NCc3cc4nc(-c5cccc(C6CC6)c5)ccc4nn3)cc21 [Compound 198] | 6.00 to 6.30
C[C@@]1(F)COCc2ccc(C(=O)NCc3cc4nc(N5CCN(C6CC6)S5(=O)=O)ccc4cn3)cc21 [Compound 279] | 6.00 to 6.30
C[C@@]1(C#N)COCc2ccc(C(=O)NCc3nccc(/C=C/c4ccccc4)c3F)cc21 [Compound 33] | < 6.00

### Prompt What measured pIC50 goes with CN(C)c1cccc(-c2ccc3cnc(CNC(=O)c4ccc5c(c4)[C@](C)(C#N)COC5)cc3n2)n1 [Compound 360] ?
### Response < 6.00

### Prompt What measured pIC50 goes with C[C@@]1(C#N)COCc2ccc(C(=O)NCc3cc4nc(-c5cnc(N6CCC6)cn5)ccc4cn3)cc21 [Compound 414] ?
### Response 6.00 to 6.30
